# Experiment Description: log P determination by HPLC (EEC Directive 79/831 Annex V.A8)
# Type: physicochemical
# Assay Conditions: log P
Form field: chromatographic logP (one value per entry).
Measured Parameter: chromatographic logP

INSERT INTO measurements (molecule, reported_measurement) VALUES
  ('CCNC(=O)c1cc(C#N)cc(C)c1NC(=O)c1cc(Cn2nnnc2C(F)(F)F)nn1-c1ncccc1Cl', 2.5),
  ('Cc1cc(C#N)cc(C(=O)NCC2CC2)c1NC(=O)c1cc(Cn2nnc(C(F)F)n2)nn1-c1ncccc1Cl', 2.66),
  ('Cc1cc(Br)cc(C(=O)NC(C)C2CC2)c1NC(=O)c1cc(Cn2nnc(C(F)(F)C(F)(F)F)n2)nn1-c1ncccc1Cl (centres unmarked)', 4.29),
  ('Cc1cc(C#N)cc(C(=O)NC2CCC2)c1NC(=O)c1cc(Cn2nnnc2C(F)(F)F)nn1-c1ncccc1Cl', 2.83),
  ('Cc1cc(C)c(NC(=O)c2cc(Cn3nnc(C(F)(F)F)n3)nn2-c2ncccc2Cl)c(C(=O)NC(C)C)c1', 3.29),
  ('Cc1cc(Cl)cc(C(=O)NC2CC2)c1NC(=O)c1cc(Cn2nnnc2C(F)F)nn1-c1ncccc1Cl', 2.5),
  ('Cc1cc(C#N)cc(C(=O)NC2CCC2)c1NC(=O)c1cc(Cn2nnc(C(F)(F)F)n2)nn1-c1ncccc1Cl', 3.18),
  ('Cc1cc(F)cc(C(=O)NC(C)C)c1NC(=O)c1cc(Cn2nnc(C(F)(F)F)n2)nn1-c1ncccc1Cl', 3.11),
  ('CC(C)NC(=O)c1cc(Cl)cc(Cl)c1NC(=O)c1cc(Cn2nnc(C(F)F)n2)nn1-c1ncccc1Cl', 2.91),
  ('CSC[C@H](C)NC(=O)c1cc(Cl)cc(C)c1NC(=O)c1cc(Cn2nnc(C(F)(F)C(F)(F)F)n2)nn1-c1ncccc1Cl', 4.09),
  ('Cc1cc(C)c(NC(=O)c2cc(Cn3nnc(C(F)(F)F)n3)nn2-c2ncccc2Cl)c(C(=O)NC(C)C2CC2)c1 (centres unmarked)', 3.59),
  ('Cc1cc(C#N)cc(C(=O)NCC2CC2(Cl)Cl)c1NC(=O)c1cc(Cn2nnc(C(F)(F)F)n2)nn1-c1ncccc1Cl (centres unmarked)', 3.5),
  ('Cc1cc(Cl)cc(C(=O)NC(C)C)c1NC(=O)c1cc(Cn2nnc(C(F)(F)C(F)(F)F)n2)nn1-c1ncccc1Cl', 3.94),
  ('Cc1cc(Br)cc(C(=O)NC2CC2)c1NC(=O)c1cc(Cn2nnc(C(F)(F)F)n2)nn1-c1ncccc1Cl', 3.3);
